assay: self-splicing fitness, log relative to wild type (ln ratio); higher = more splicing; Tetrahymena group I intron in knt gene, E. coli kanamycin selection, DiMSum; sequences stand for … in CUCUCU…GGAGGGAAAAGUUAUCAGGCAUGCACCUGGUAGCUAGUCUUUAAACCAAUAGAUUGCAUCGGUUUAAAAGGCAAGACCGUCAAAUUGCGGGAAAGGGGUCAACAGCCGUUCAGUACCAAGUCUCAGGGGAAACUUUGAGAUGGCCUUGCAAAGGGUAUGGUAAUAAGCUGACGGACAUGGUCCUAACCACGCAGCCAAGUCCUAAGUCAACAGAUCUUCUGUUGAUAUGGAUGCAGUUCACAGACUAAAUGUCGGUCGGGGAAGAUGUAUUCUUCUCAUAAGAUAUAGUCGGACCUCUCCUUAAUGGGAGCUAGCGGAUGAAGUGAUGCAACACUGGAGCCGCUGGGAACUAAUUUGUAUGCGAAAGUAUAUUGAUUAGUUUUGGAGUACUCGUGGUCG; conditions: 37 °C;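 also: selection with 25 µg/mL kanamycin versus none on LB agar overnight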

seq_text: AAAUAGCAAUAUUACGCUGG
self-splicing fitness (ln): -1.15
--
seq_text: GGUGAGCAAUAUUACGGGAA
self-splicing fitness (ln): -2.5
--
seq_text: UAGGAGCAAUAUUACGAUGG
self-splicing fitness (ln): -1.4
--
seq_text: ACCGAGCAAUAUUACGCUUG
self-splicing fitness (ln): -2.17
--
seq_text: AGGAAGCAAUAUUACGCCGA
self-splicing fitness (ln): -0.0948
--
seq_text: AUCAAGCAAUAUUACGACGG
self-splicing fitness (ln): -2.67
--
seq_text: UCAAAGCAAUAUUACGGAUG
self-splicing fitness (ln): -1.32
--
seq_text: AAUCAGCAAUAUUACGCCUA
self-splicing fitness (ln): 0.103
--
seq_text: CAGCAGCAAUAUUACGAGGC
self-splicing fitness (ln): -2.92
--
seq_text: ACUGAGCAAUAUUACGCAAU
self-splicing fitness (ln): -2.03
--
seq_text: CCUAAGCAAUAUUACGUGAA
self-splicing fitness (ln): -1.96
--
seq_text: UCGCAGCAAUAUUACGUCUG
self-splicing fitness (ln): -1.97
--
seq_text: CGGUAGCAAUAUUACGUCGA
self-splicing fitness (ln): -0.214
--
seq_text: ACCCAGCAAUAUUACGAAGG
self-splicing fitness (ln): -0.892
--
seq_text: AUCUAGCAAUAUUACGCAUU
self-splicing fitness (ln): -0.414
--
seq_text: CGCGAGCAAUAUUACGCACG
self-splicing fitness (ln): -2.14
--
seq_text: UCACAGCAAUAUUACGUGCG
self-splicing fitness (ln): -0.105
--
seq_text: GGUCAGCAAUAUUACGUUUC
self-splicing fitness (ln): -0.437
--
seq_text: ACUGAGCAAUAUUACGAGGA
self-splicing fitness (ln): -1.83
--
seq_text: CCCGAGCAAUAUUACGGGAC
self-splicing fitness (ln): -1.89
--
seq_text: AAUUAGCAAUAUUACGGACC
self-splicing fitness (ln): -1.07
--
seq_text: CAACAGCAAUAUUACGCCUU
self-splicing fitness (ln): -1.1
--
seq_text: UCAAAGCAAUAUUACGGACC
self-splicing fitness (ln): -2.54
--
seq_text: GGACAGCAAUAUUACGAAAU
self-splicing fitness (ln): -0.0392
--
seq_text: GUGCAGCAAUAUUACGCUGU
self-splicing fitness (ln): -2.63
--
seq_text: UGUCAGCAAUAUUACGUAGC
self-splicing fitness (ln): -2.17
--
seq_text: GCCUAGCAAUAUUACGAUCU
self-splicing fitness (ln): -0.334
--
seq_text: UGUGAGCAAUAUUACGACCA
self-splicing fitness (ln): -0.0518
--
seq_text: UGUGAGCAAUAUUACGAGUU
self-splicing fitness (ln): -1.97
--
seq_text: AGUAAGCAAUAUUACGAAGG
self-splicing fitness (ln): -2.07
--
seq_text: GAUGAGCAAUAUUACGGUUC
self-splicing fitness (ln): -2.32
--
seq_text: GAGCAGCAAUAUUACGUCCG
self-splicing fitness (ln): -0.968
--
seq_text: GCAAAGCAAUAUUACGUGGC
self-splicing fitness (ln): -2.57
--
seq_text: ACACAGCAAUAUUACGUUUC
self-splicing fitness (ln): -2.28
--
seq_text: GAGUAGCAAUAUUACGCAUG
self-splicing fitness (ln): -0.606
--
seq_text: UUUAAGCAAUAUUACGUGGC
self-splicing fitness (ln): -3.57
--
seq_text: AGGGAGCAAUAUUACGACAC
self-splicing fitness (ln): -1.18
--
seq_text: CAGAAGCAAUAUUACGAACG
self-splicing fitness (ln): 0.182
--
seq_text: CUGUAGCAAUAUUACGGAAU
self-splicing fitness (ln): -3.57
--
seq_text: GCCUAGCAAUAUUACGCGCU
self-splicing fitness (ln): -0.269
--
seq_text: GCUCAGCAAUAUUACGCAUU
self-splicing fitness (ln): -0.0385
--
seq_text: CUUUAGCAAUAUUACGUUAU
self-splicing fitness (ln): -1.79
--
seq_text: GCUGAGCAAUAUUACGUUGG
self-splicing fitness (ln): -1.9
--
seq_text: CGGUAGCAAUAUUACGCAGU
self-splicing fitness (ln): -2.63
--
seq_text: CGUCAGCAAUAUUACGAGUC
self-splicing fitness (ln): -1.18
--
seq_text: UCUUAGCAAUAUUACGAACA
self-splicing fitness (ln): -1.04
--
seq_text: UACGAGCAAUAUUACGCGGC
self-splicing fitness (ln): -2.28
--
seq_text: AGCUAGCAAUAUUACGUUAC
self-splicing fitness (ln): -1.87
--
seq_text: GGAUAGCAAUAUUACGGAGU
self-splicing fitness (ln): -2.16
--
seq_text: UACGAGCAAUAUUACGGAUG
self-splicing fitness (ln): -1.27
--
seq_text: ACUCAGCAAUAUUACGCCUU
self-splicing fitness (ln): 0.491
--
seq_text: UUAAAGCAAUAUUACGCAUC
self-splicing fitness (ln): -1.39
--
seq_text: GUAUAGCAAUAUUACGUCCU
self-splicing fitness (ln): -0.00945
--
seq_text: UUCGAGCAAUAUUACGCGAU
self-splicing fitness (ln): -2.11
--
seq_text: UCAUAGCAAUAUUACGCUAC
self-splicing fitness (ln): -3.42
--
seq_text: GCGCAGCAAUAUUACGUAGC
self-splicing fitness (ln): -0.709
--
seq_text: GCCAAGCAAUAUUACGUCUA
self-splicing fitness (ln): -1.08
--
seq_text: CUAAAGCAAUAUUACGUCUC
self-splicing fitness (ln): -1.93
--
seq_text: GCGAAGCAAUAUUACGUACC
self-splicing fitness (ln): 0.269
--
seq_text: CCCAAGCAAUAUUACGCGAC
self-splicing fitness (ln): -2.29
--
seq_text: CCCAAGCAAUAUUACGAACC
self-splicing fitness (ln): -2.59
